pIC50: −log10 of the molar value.
Compiled literature pIC50, tested on UniProt:Q92918.

{"columns": ["COMPOUND", "PARAMETER MEASURED", "ASSAY VALUE"],
 "data": [
  ["O=c1[nH]ccc2nc(C3CCNCC3)cc(Nc3ccc(N4CCC(O)CC4)cn3)c12", "pIC50", "6.00 to 7.00"],
  ["O=C1NCc2c(-c3cnc4cc(F)ccn34)ccc(Nc3ccc([C@H]4CCOC4)c(CN4CCC[C@H]4CO)n3)c21", "pIC50", "> 7.00"],
  ["CC(=O)NC1CCCN(c2cc(Nc3ccc(N4CCC(O)CC4)cn3)c3c(=O)[nH]ccc3n2)C1 (stereo not shown)", "pIC50", "< 6.00"]
]}

Attention now turns to another entry.
// field: pIC50; key: COc1cccc(F)c1-c1nccc(C(=O)Nc2cc(F)ccc2N2C[C@@H]3C[C@H]2CN3)c1F ; value = 6.00 to 7.00

---

Compiled literature IC50, tested on UniProtKB Q92918.

{"columns": ["COMPOUND", "ASSAY VALUE"],
 "data": [
  ["Cc1ccc2c(-c3ncc(Nc4ccc(N5CCN(C)CC5)cn4)c4c3CNC4=O)c(C)[nH]c2n1", "> 1000 nM"],
  ["O=C1NCc2c(-c3c[nH]c4ccccc34)ncc(Nc3ccc(N4CCC(F)(F)CC4)cn3)c21", "> 1000 nM"],
  ["Cc1cc(-c2cnc3[nH]cc(-c4ccc(C(=O)N(C)CCC#N)cc4)c3n2)cc2c1CCN(C)C2", "16 nM"],
  ["O=C1NCc2c(-c3cnc4cc(F)ccn34)ccc(Nc3ccc(N4CCC(O)(CN5CCOCC5)CC4)cn3)c21", "< 100 nM"],
  ["COc1cc2c(cc1Nc1ncc(C(N)=O)c(Nc3ccccc3-n3ccnn3)n1)CN(C)CC2", "0.23 nM"],
  ["CC1(C(=O)Nc2ccc(-c3cc(Nc4ccc(N5CCC(O)CC5)cn4)c4c(=O)[nH]ccc4n3)c(F)c2)COC1", "≤ 100 nM"],
  ["C/C(Nc1ccn(CCC(C)(C)O)n1)=C1/C(=O)Nc2cnc(-c3cnccc3C)cc21", "< 50 nM"],
  ["CN1CCC(c2ccc(Nc3ccc(-c4ccnc5c4ccn5C)c4c3C(=O)NC4)nc2)CC1=O (stereo not drawn)", "< 100 nM"]
]}

Record COc1ccc(F)c(-c2cc(Nc3ccc(N4CCC(O)CC4)cn3)c3c(=O)[nH]ccc3n2)c1F / UniProtKB Q92918, IC50 recorded as 100 to 1000 nM

Record CCn1cc(Cl)c(Nc2nc(Nc3cc4c(cc3OC)CCN(C)C4)ncc2C(N)=O)n1 / UniProtKB Q92918, IC50 recorded as 4.78 nM

Record Cc1cc(-c2cnc(N)c(OCc3ccnc(N)c3)n2)cc2c1CCN(C)C2 / UniProtKB Q92918, IC50 recorded as 5.2 nM

Record CNc1ncc2c(n1)N1CCN=C1C(c1cc(C(=O)Nc3cc(C(F)(F)F)ccn3)c(F)cc1C)=C2 / UniProtKB Q92918, IC50 recorded as 100 to 10000 nM

---

Compiled literature IC50, tested on HPK1 (Homo sapiens (Human), UniProt Q92918).

Use these answered entries as a reference point.
{"columns": ["SMILES", "IC50"],
 "data": [
  ["NC(=O)c1cnc(Nc2ccc3c(c2)COC3=O)nc1N[C@H](CO)c1ccccc1", "92.1 nM"],
  ["CO[C@@H]1CCN(Cc2nc(Nc3ccc(-c4cnc5cc(F)ccn45)c4c3C(=O)NC4)ccc2[C@H]2CCOC2)C1", "< 100 nM"],
  ["N#Cc1ccncc1-c1ccc(NC(=O)c2ccc(=O)n(-c3c(F)cccc3F)n2)c(N2CC[C@@H](N)C2)c1", "< 100 nM"],
  ["N[C@@H]1CCN(c2c(NC(=O)c3ccc(=O)n(-c4c(F)cccc4F)n3)ccc3c2cnn3CC(F)(F)F)C1", "< 100 nM"],
  ["O=C(Nc1ccc(-c2cc(Nc3ccc(N4CCC(O)CC4)cn3)c3c(=O)[nH]ccc3n2)c(F)c1)C1(C(F)F)CC1", "≤ 100 nM"]
]}

Record CC(C)n1ncc2c(N3C[C@H](N)C(C)(C)C3)c(NC(=O)c3ccc(=O)n(-c4c(F)cccc4F)n3)ccc21 / HPK1 (Homo sapiens (Human), UniProt Q92918), IC50 recorded as < 100 nM

Record COCCn1ccc2c(-c3ccc(Nc4ccc(N5CCN(C)CC5)cn4)c4c3CNC4=O)ccnc21 / HPK1 (Homo sapiens (Human), UniProt Q92918), IC50 recorded as < 100 nM

---

Compiled literature pIC50, tested on HPK1 (Homo sapiens (Human), UniProt Q92918).
pIC50: −log10 of the molar value.

Use these answered entries as a reference point.
{"columns": ["MOLECULE", "pIC50"],
 "data": [
  ["O=C1NCc2c(-n3ccnc3)ccc(Nc3ccc(N4CCNCC4)cn3)c21", "5.30 to 6.00"],
  ["Cc1ccn2c(-c3ccc(Nc4ccc(S(C)(=O)=O)cn4)c4c3CNC4=O)cnc2c1", "> 7.00"],
  ["C[C@@H](OC[C@H]1COCCO1)c1ccc(Nc2ccc(-c3cnc4cc(F)ccn34)c3c2C(=O)NC3)nc1CN(C)C (single isomer, unassigned)", "≥ 7.00"],
  ["Cn1ccc2c(-c3ccc(Nc4ccc(N5CCC6(CC5)COC6)cn4)c4c3CNC4=O)ccnc21", "> 7.00"],
  ["Cc1cccc(F)c1-n1nc2c(-c3ccc4c(c3)CCN(C3CNC3)C4)n[nH]c2cc1=O", "≥ 7.30"]
]}

Attention now turns to another entry.
// field: pIC50; key: O=C1NCc2c(-c3cn(-c4ccccc4)cn3)ccc(Nc3ccc(N4CCNCC4)cn3)c21 ; value = 5.30 to 6.00

---

Compiled literature pIC50, tested on HPK1 (Homo sapiens (Human), UniProt Q92918).
pIC50: −log10 of the molar value.

Use these answered entries as a reference point.
{"columns": ["SMILES", "pIC50"],
 "data": [
  ["Cc1c(-c2cc3nc(Nc4cnn(CC(C)C)c4)ncc3c(N)c2F)cnc2c1NCCO2", 9.11],
  ["Cc1ccc(NC(=O)c2cc(C(F)(F)F)ccn2)cc1C1=Cc2cnc(Nc3ccn(C)n3)nc2N2CCN=C12", "> 7.00"],
  ["CC/C(Nc1ccc(N2CCN(C)CC2)cc1)=C1/C(=O)Nc2ccc(-c3c(F)cccc3OC)cc21", "> 7.30"],
  ["NC(=O)c1cnc(Nc2ccc3c(c2)COCC3)nc1Nc1ccccc1Br", 7.26],
  ["CN1CCN(c2ccc(Nc3cnc(-c4ccnc5[nH]ccc45)c4c3C(=O)NC4)nc2)CC1", "> 7.00"]
]}

Attention now turns to another entry.
// field: pIC50; key: COc1cccc(F)c1-c1cc2c(cn1)NC(=O)/C2=C(/C)Nc1cnn([C@@H](C)C#N)c1 ; value = > 7.30

---

Compiled literature IC50, tested on HPK1 (Homo sapiens (Human), UniProt Q92918).

Record CN1CCN(c2ccc(Nc3ccc(-c4cnc5cnccn45)c4c3C(=O)NC4)nc2)CC1 / HPK1 (Homo sapiens (Human), UniProt Q92918), IC50 recorded as < 100 nM

Record COCCn1ncc2c(N3CC[C@@H](N)C3)c(NC(=O)c3ccc(=O)n(-c4c(F)cccc4F)n3)cc(F)c21 / HPK1 (Homo sapiens (Human), UniProt Q92918), IC50 recorded as < 100 nM

Record O=c1[nH]ccc2nc(-c3ccc(OCc4ccncc4)cc3F)cc(Nc3cc(C4CCOC4)n[nH]3)c12 (stereo not shown) / HPK1 (Homo sapiens (Human), UniProt Q92918), IC50 recorded as > 1000 nM

Record CC(C)(O)[C@H]1CCCN(c2ccc(Nc3ccc(-c4cnc5cnccn45)c4c3C(=O)NC4)nc2)C1 / HPK1 (Homo sapiens (Human), UniProt Q92918), IC50 recorded as < 100 nM

Record CN1CCN(c2ccc3nc(-c4c(N5CCOCC5)c5sccc5[nH]c4=O)[nH]c3c2)CC1 / HPK1 (Homo sapiens (Human), UniProt Q92918), IC50 recorded as > 500 nM

Record COc1cc(F)ccc1Nc1ncc(C(N)=O)c(Nc2cccc3c2CCNC3=O)n1 / HPK1 (Homo sapiens (Human), UniProt Q92918), IC50 recorded as 733 nM

Record CN(C)C(C)(C)[C@@]1(O)CCCN(c2ccc(Nc3ccc(-c4cnc5cc(F)ccn45)c4c3C(=O)NC4)nc2)C1 / HPK1 (Homo sapiens (Human), UniProt Q92918), IC50 recorded as < 100 nM

Record COc1cncc(-c2ccc3cnc(Nc4cc5c(cc4OC)CCNC5)nc3c2)c1 / HPK1 (Homo sapiens (Human), UniProt Q92918), IC50 recorded as 9.45 nM

Record COc1cccc(F)c1-c1cccc(C(=O)Nc2cc(F)ccc2N2C[C@H]3C[C@@H]2CN3)[n+]1[O-] / HPK1 (Homo sapiens (Human), UniProt Q92918), IC50 recorded as < 100 nM

Record CN1CCN(c2ccc3nc(-c4c(NCc5ccccn5)c5sccc5[nH]c4=O)[nH]c3c2)CC1 / HPK1 (Homo sapiens (Human), UniProt Q92918), IC50 recorded as ≤ 50 nM

Record Cc1cc(-c2cnc(N)c(OCc3cc[nH]n3)n2)cc2c1CCN(C)C2 / HPK1 (Homo sapiens (Human), UniProt Q92918), IC50 recorded as 56 nM

Record Cn1c2c(cc(Nc3ncc4ccnc(N5CCSCC5)c4n3)c1=O)CN(CCO)CC2 / HPK1 (Homo sapiens (Human), UniProt Q92918), IC50 recorded as 0.43 nM

Record CNCc1cc(C)c(-c2cc3c(-c4ccc5c(c4)OCC4CN(C)CCN54)c[nH]c3cn2)c(F)c1 (stereo not shown) / HPK1 (Homo sapiens (Human), UniProt Q92918), IC50 recorded as ≤ 10 nM

Record COc1cc(Nc2ccc(-c3cnc4cc(F)ccn34)c3c2C(=O)NC3)ncc1N1CCC(O)CC1 / HPK1 (Homo sapiens (Human), UniProt Q92918), IC50 recorded as < 100 nM

Record O=C1NC2(CCNC2)C(=O)N1c1cccc(-c2cnc3[nH]cc(C4CC4)c3c2Cl)c1 (stereo not shown) / HPK1 (Homo sapiens (Human), UniProt Q92918), IC50 recorded as 14.4 nM

Record C/C(Nc1cnn(C)c1)=C1/C(=O)Nc2cnc(-c3c(C)noc3C)cc21 / HPK1 (Homo sapiens (Human), UniProt Q92918), IC50 recorded as 50 to 100 nM

Record NC(=O)c1cnc(Nc2ccc(F)cc2F)nc1Nc1cccc2c1CCNC2=O / HPK1 (Homo sapiens (Human), UniProt Q92918), IC50 recorded as 333 nM

Record COc1cc2c(cc1Nc1ncc(C(N)=O)c(N[C@@H]3c4ccccc4C[C@H]3O)n1)CN(C)CC2 / HPK1 (Homo sapiens (Human), UniProt Q92918), IC50 recorded as 17.8 nM

Record Cc1cccc(F)c1-n1nc2c(-c3ccc(N4CCN(C)CC4CO)cc3)n[nH]c2cc1=O (stereo not shown) / HPK1 (Homo sapiens (Human), UniProt Q92918), IC50 recorded as ≤ 50 nM

Record CNC(=O)C1(c2ccc(Nc3ncc4c(N)c(F)c(-c5cnc6c(c5C)NCCO6)cc4n3)cc2)CCCCC1 / HPK1 (Homo sapiens (Human), UniProt Q92918), IC50 recorded as 0.0728 nM

Record CN1CCN(c2ccc(Nc3ccc(-c4ccnc(N5CCC6(CCNC6)CC5)c4)c4c3C(=O)NC4)nc2)CC1 / HPK1 (Homo sapiens (Human), UniProt Q92918), IC50 recorded as < 1000 nM

Record CC1(N2CCOCC2)CCN(c2ccc(Nc3ccc(-c4cnc5cc(F)ccn45)c4c3C(=O)NC4)nc2)CC1 / HPK1 (Homo sapiens (Human), UniProt Q92918), IC50 recorded as < 100 nM
